target: CaBem1-D1; assay: SPOT peptide array binding signal intensity (averaged, normalized) (arbitrary units (background-subtracted, floor 0; scale differs between SH3 domains)); higher = stronger binding of the SH3 domain to the peptide
Recorded Endpoint: SPOT peptide array binding signal intensity
// return a plain number; no unit text

>  <Binder>
LSKRLPLRFPEHTSS

>  <Observed Measurement>
10

$$$$
>  <Binder>
PLRRTVMSLPGNHDI

>  <Observed Measurement>
200

$$$$
>  <Binder>
NLKKRPPTAPQRKIS

>  <Observed Measurement>
48.5

$$$$
>  <Binder>
KNPRRQLQIPRQQPS

>  <Observed Measurement>
73

$$$$
>  <Binder>
LPMNIQPDLPPRKIM

>  <Observed Measurement>
42

$$$$

# ---- query binder ----
Q. Return value of SPOT peptide array binding signal intensity for input RRSKSLPTTPGIRSG , no commentary.
A. 54

Recorded values, source the supplement of paper PMC4466140.
